- experimental.protocol: chemical genetic growth profiling, strain panel (AID 1159580);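 also: tested at 20 µM; growth read once vehicle control cultures reached saturation at 30 °C; 1 = growth at the plate median or of vehicle wells; lower values mean less growth of the strain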
- particulars: S. cerevisiae deletion strains, growth OD, locus YLR342W, strain FKS1
In all, about 5,500 compounds went through this assay and about 2,000 (36%) were called active. About 18% were inconclusive and are not listed. Rule as the data show it: active = normalized growth mostly below about 0.91 (no sharp cut-off); inconclusive = no clear call, values can overlap the other calls; inactive = mostly above about 0.92. The list shows a part of the results.
Outcome codes: label 1 (active), label 0 (inactive)

[[record]]
molecule = "O=c1n(CCCN2CCN(c3cccc(Cl)c3)CC2)nc2ccccn12"
class_name = "label 0"

[[record]]
molecule = "CC(C)=CCC1=C(O)c2ccccc2C(=O)C1=O"
class_name = "label 1"

[[record]]
molecule = "COC(=O)C[C@H]1C(C)(C)[C@@H](OC(C)=O)[C@@H]2CC3C4CC(=O)O[C@@H](c5ccoc5)[C@]4(C)CCC3[C@@]1(C)C2=O (stereo partly specified)"
class_name = "label 0"

[[record]]
molecule = "COc1cc(OC)c(C(C)=O)c(O)c1C"
class_name = "label 0"

[[record]]
molecule = "CC(=O)OCC(=O)[C@@]1(O)CCC2C3CCC4=CC(=O)CC[C@]4(C)[C@@]3(F)[C@@H](O)C[C@@]21C (stereo partly specified)"
class_name = "label 0"

[[record]]
molecule = "CC(=O)Oc1ccc2c(c1)CCC1C2CCC2(C)C1CC(OC(C)=O)C2OC(C)=O (stereo unspecified)"
class_name = "label 0"

[[record]]
molecule = "O=C(O)c1cccc(O)c1O"
class_name = "label 0"

[[record]]
molecule = "COc1c2occc2cc2ccc(=O)oc12"
class_name = "label 0"

[[record]]
molecule = "CCCCC/C=C\\C/C=C\\C/C=C\\C/C=C\\CCCC(=O)O"
class_name = "label 0"

[[record]]
molecule = "COP(=S)(OC)SCn1nnc2ccccc2c1=O"
class_name = "label 0"

[[record]]
molecule = "COc1cc(O)c(C(=O)O)c(O)c1"
class_name = "label 0"

[[record]]
molecule = "CC(=O)Oc1ccc2c(c1)CCC1C2CC[C@@]2(C)C1CC[C@@H]2OC(C)=O (stereo partly specified)"
class_name = "label 0"

[[record]]
molecule = "CC(=O)O[C@H]1CC2CCC3C(CC[C@@]4(C)C3C[C@H]([N+]3(C)CCCCC3)[C@@H]4OC(C)=O)[C@@]2(C)C[C@@H]1[N+]1(C)CCCCC1 (stereo partly specified)"
class_name = "label 0"

[[record]]
molecule = "O=C(CCCN1CC=C(n2c(=O)[nH]c3ccccc32)CC1)c1ccc(F)cc1"
class_name = "label 0"

[[record]]
molecule = "O=c1ccc2cc(O[C@@H]3O[C@H](CO)[C@@H](O)[C@H](O)[C@H]3O)c(O)cc2o1"
class_name = "label 0"

[[record]]
molecule = "COc1cc(O)c(C(C)=O)c(OC)c1"
class_name = "label 0"

[[record]]
molecule = "O=C1c2ccccc2-c2cccc3cccc1c23"
class_name = "label 0"

[[record]]
molecule = "CC(C)=CCOc1cc2oc(=O)ccc2cc1O"
class_name = "label 0"

[[record]]
molecule = "COc1cc2ccc(=O)oc2c(OC)c1OC"
class_name = "label 0"

[[record]]
molecule = "COc1cc2ccc(=O)oc2cc1O"
class_name = "label 0"

[[record]]
molecule = "N#Cc1ccc2c(c1)N(CCCN1CCC(O)CC1)c1ccccc1S2"
class_name = "label 0"

[[record]]
molecule = "CC(=O)N[C@@H](CC(=O)O)C(=O)O"
class_name = "label 0"

[[record]]
molecule = "CSCCC(NC=O)C(=O)NC(CC(C)C)C(=O)NC(Cc1ccccc1)C(=O)O (stereo unspecified)"
class_name = "label 0"

[[record]]
molecule = "OC[C@@H](O)C(O[C@@H]1O[C@H](CO)[C@H](O)[C@H](O)[C@H]1O)[C@H](O)[C@@H](O)CO (stereo partly specified)"
class_name = "label 0"

[[record]]
molecule = "O=C1c2ccccc2C(=O)c2c(O)c(O)cc(O)c21"
class_name = "label 1"

[[record]]
molecule = "Cn1c([N+](=O)[O-])cnc1COC(N)=O"
class_name = "label 0"

[[record]]
molecule = "CN1CCN(CCCN2c3ccccc3Sc3ccc(Cl)cc32)CC1"
class_name = "label 1"

[[record]]
molecule = "c1coc(CNc2ncnc3nc[nH]c23)c1"
class_name = "label 0"

[[record]]
molecule = "CC(C)=CCOc1c2occc2cc2ccc(=O)oc12"
class_name = "label 1"

[[record]]
molecule = "FC(F)(F)COCC(F)(F)F"
class_name = "label 0"

[[record]]
molecule = "Cn1c(=O)[nH]c(=O)c2[nH]cnc21"
class_name = "label 0"

[[record]]
molecule = "CC(C)(O)CC[C@@H](O)[C@](C)(O)C1CC[C@@]2(O)C3=CC(=O)C4C[C@@H](O)[C@@H](O)C[C@]4(C)C3CC[C@]12C (stereo partly specified)"
class_name = "label 0"

[[record]]
molecule = "CC1(C)C[C@@H]2C(=O)CC[C@H]3O[C@]3(C)CC[C@H]21"
class_name = "label 0"

[[record]]
molecule = "COc1c(O)cc(O)cc1O"
class_name = "label 0"

[[record]]
molecule = "CCC(=O)O[C@H]1CCC2C3CCc4cc(O)ccc4C3CC[C@@]21C (stereo partly specified)"
class_name = "label 0"

[[record]]
molecule = "CC(=O)c1ccc2c(c1)N(CCCN(C)C)c1ccccc1S2"
class_name = "label 0"

[[record]]
molecule = "CNC(=O)CSP(=S)(OC)OC"
class_name = "label 0"

[[record]]
molecule = "COc1cc2ccc(=O)oc2c2ccoc12"
class_name = "label 0"

[[record]]
molecule = "CC(C(=O)O)c1ccc(N2Cc3ccccc3C2=O)cc1 (stereo unspecified)"
class_name = "label 0"

[[record]]
molecule = "COc1ccc2ccc(=O)oc2c1CC=C(C)C"
class_name = "label 0"

[[record]]
molecule = "CC(=O)OC1CCC23C(=O)OC45CCC(C6=CC(=O)OC6)C4(C)CCC2C5CCC3(O)C1 (stereo unspecified)"
class_name = "label 0"

[[record]]
molecule = "CC(C)=CCC/C(C)=C/COc1ccc2ccc(=O)oc2c1"
class_name = "label 0"

[[record]]
molecule = "OCCN1CCN(CCCN2c3ccccc3Sc3ccc(Cl)cc32)CC1"
class_name = "label 0"

[[record]]
molecule = "CC(=O)O[C@@H]1CC2C(C)(C)[C@H](O)C[C@H](O)[C@]2(C)C2CC[C@@]3(C)C(=CC(=O)O[C@H]3c3ccoc3)[C@@]21C (stereo partly specified)"
class_name = "label 0"

[[record]]
molecule = "Cc1ncc([N+](=O)[O-])n1CCO"
class_name = "label 0"

[[record]]
molecule = "Nc1ncnc2nc[nH]c12"
class_name = "label 0"

